Test: in vitro
Settings: human
Listing of recorded CC50 by entry.
The figure you give is taken to be in µM; do not add the unit.

| COMPOUND | MEASUREMENT_UNITS | CC50 |
| --- | --- | --- |
| O=C(NCCN1CCN(c2ccc(Cl)cc2)CC1)c1c(Cl)[nH]c2c1CCCc1ccccc1-2 [Compound 13] | µM | 62.2 |

Shift focus to the following entry.
// recorded CC50 for CC(C)OC(=O)[C@H](C)N[P@](=O)(OC[C@H]1O[C@@H](n2ccc(=O)[nH]c2=O)[C@](C)(F)[C@@H]1O)Oc1ccccc1 [sofosbuvir, reference compound] : 262

* * *

System: MOLT-4 (leukemia cell line)
Experiment: NCI-60 single-dose assay
Assay type: cell-based, human
Conditions: Homo sapiens, MOLT-4, read-out: growth inhibition (GI%) and cytotoxicity (negative values)
READOUT: inhibition at 10 µM

| COMPOUND | inhibition at 10 µM |
| --- | --- |
| O=C(NCCCN1CCN(Cc2ccccc2)CC1)c1c(Cl)[nH]c2c1CCCc1ccccc1-2 [Compound 20] | < 60% |
| O=C(NCCN1CCN(c2ccc(Cl)cc2)CC1)c1c(Cl)[nH]c2c1CCCc1ccccc1-2 [Compound 13] | 61.7% |
| N#Cc1ccccc1N1CCN(CCNC(=O)c2c(Cl)[nH]c3c2CCCc2ccccc2-3)CC1 [Compound 18] | 81.8% |
| COc1cccc(N2CCN(CCNC(=O)c3c(Cl)[nH]c4c3CCCc3ccccc3-4)CC2)c1 [Compound 16] | < 60% |
| CCN1CCC[C@H]1CNC(=O)c1[nH]c2c(c1Cl)CCCc1ccccc1-2 [Compound 1] | 96.2% |
| CCOc1ccccc1N1CCN(CCNC(=O)c2c(Cl)[nH]c3c2CCCc2ccccc2-3)CC1 [Compound 17] | 95.5% |

// recorded inhibition at 10 µM for O=C(NCCCN1CCN(c2ccccc2)CC1)c1cc2c([nH]1)-c1ccccc1CCC2 [Compound 10] : < 60%

// recorded inhibition at 10 µM for O=C(NCCN1CCN(c2ccccc2)CC1)c1c(Cl)[nH]c2c1CCCc1ccccc1-2 [Compound 12] : < 60%

// recorded inhibition at 10 µM for COc1ccccc1N1CCN(CCNC(=O)c2c(Cl)[nH]c3c2CCCc2ccccc2-3)CC1 [Compound 15] : 76.5%

// recorded inhibition at 10 µM for O=C(NCCN1CCN(c2ccccc2Cl)CC1)c1c(Cl)[nH]c2c1CCCc1ccccc1-2 [Compound 14] : < 60%

// recorded inhibition at 10 µM for COc1ccccc1N1CCN(CCNC(=O)c2[nH]c3c(c2Cl)CCCc2ccccc2-3)CC1 [Compound 5] : 93%

// recorded inhibition at 10 µM for CCOc1ccccc1N1CCN(CCNC(=O)c2[nH]c3c(c2Cl)CCCc2ccccc2-3)CC1 [Compound 7] : 66.5%

* * *

Experiment: Cytotoxicity on uninfected Huh-7 cells (WST-8, crystal violet)
Details: human, uninfected Huh-7 cells
READOUT: CC50 at 48 h (µM)
The figure you give is taken to be in µM; do not add the unit.

These solved cases illustrate the format of a correct answer.
| CHEM_SMILES | CC50 at 48 h (µM) |
| --- | --- |
| CCOc1ccccc1N1CCN(CCNC(=O)c2c(Cl)[nH]c3c2CCCc2ccccc2-3)CC1 | 16.4 |
| O=C(NCCN1CCN(c2ccc(Cl)c(Cl)c2)CC1)c1[nH]c2c(c1Cl)CCCc1ccccc1-2 | 65.5 |

Shift focus to the following entry.
// recorded CC50 at 48 h for N#Cc1ccccc1N1CCN(CCNC(=O)c2[nH]c3c(c2Cl)CCCc2ccccc2-3)CC1 : 50.6

* * *

Assay: in vitro
Conditions: dog
Listing of recorded log10(CC50) by entry.
Answers are given as log10 of CC50 in µM.

These solved cases illustrate the format of a correct answer.
| CHEM_SMILES | log10(CC50) |
| --- | --- |
| O=C(NCCN1CCN(c2ccccc2Cl)CC1)c1c(Cl)[nH]c2c1CCCc1ccccc1-2 | 1.19 |
| CCOc1ccccc1N1CCN(CCNC(=O)c2c(Cl)[nH]c3c2CCCc2ccccc2-3)CC1 | 0.91 |
| COc1ccccc1N1CCN(CCNC(=O)c2c(Cl)[nH]c3c2CCCc2ccccc2-3)CC1 | 0.92 |
| N#Cc1ccccc1N1CCN(CCNC(=O)c2[nH]c3c(c2Cl)CCCc2ccccc2-3)CC1 | 2.08 |
| COc1cccc(N2CCN(CCNC(=O)c3[nH]c4c(c3Cl)CCCc3ccccc3-4)CC2)c1 | 1.82 |
| COc1cccc(N2CCN(CCNC(=O)c3c(Cl)[nH]c4c3CCCc3ccccc3-4)CC2)c1 | 1.63 |
| O=C(NCCN1CCN(c2ccccc2)CC1)c1c(Cl)[nH]c2c1CCCc1ccccc1-2 | 1.51 |
| CCN1CCC[C@H]1CNC(=O)c1[nH]c2c(c1Cl)CCCc1ccccc1-2 | 0.24 |

// recorded log10(CC50) for N#Cc1ccccc1N1CCN(CCNC(=O)c2c(Cl)[nH]c3c2CCCc2ccccc2-3)CC1 : 1.14

// recorded log10(CC50) for COc1ccccc1N1CCN(CCNC(=O)c2[nH]c3c(c2Cl)CCCc2ccccc2-3)CC1 : 1.04

// recorded log10(CC50) for CCOc1ccccc1N1CCN(CCNC(=O)c2[nH]c3c(c2Cl)CCCc2ccccc2-3)CC1 : 0.75

// recorded log10(CC50) for O=C(NCCCN1CCN(c2ccccc2)CC1)c1cc2c([nH]1)-c1ccccc1CCC2 : 1.83

// recorded log10(CC50) for O=C(NCCN1CCN(c2ccccc2Cl)CC1)c1[nH]c2c(c1Cl)CCCc1ccccc1-2 : 1.17

// recorded log10(CC50) for O=C(NCCCN1CCN(Cc2ccccc2)CC1)c1c(Cl)[nH]c2c1CCCc1ccccc1-2 : 0.79

* * *

Test system: HCT-15 (colon cancer cell line)
Experiment: NCI-60 single-dose assay
Assay type: cell-based, human
Conditions: Homo sapiens, HCT-15, read-out: growth inhibition (GI%) and cytotoxicity (negative values)
Description: We first evaluated the cytotoxic activity of tricyclic-pyrrole carboxamides 1–20 using the NCI-60 cell line panel, representing nine different human cancers: leukemia, melanoma, and cancers of the lung, colon, central nervous system (CNS), ovary, kidney, prostate, and breast (the one-dose graph for compounds 1–20 is reported in Supplementary Materials, Figures S43–S62). […]
READOUT: inhibition at 10 µM (%)
The figure you give is taken to be in %; do not add the unit.

These solved cases illustrate the format of a correct answer.
| CHEM_SMILES | inhibition at 10 µM / % |
| --- | --- |
| CCOc1ccccc1N1CCN(CCNC(=O)c2[nH]c3c(c2Cl)CCCc2ccccc2-3)CC1 | 82.1 |
| COc1ccccc1N1CCN(CCNC(=O)c2c(Cl)[nH]c3c2CCCc2ccccc2-3)CC1 | 66.4 |
| O=C(NCCCN1CCN(c2ccccc2)CC1)c1cc2c([nH]1)-c1ccccc1CCC2 | 91.2 |
| CCOc1ccccc1N1CCN(CCNC(=O)c2c(Cl)[nH]c3c2CCCc2ccccc2-3)CC1 | 81 |

Summary line: COc1ccccc1N1CCN(CCNC(=O)c2[nH]c3c(c2Cl)CCCc2ccccc2-3)CC1 , HCT-15 (colon cancer cell line), reported inhibition at 10 µM = 92.5

Summary line: N#Cc1ccccc1N1CCN(CCNC(=O)c2c(Cl)[nH]c3c2CCCc2ccccc2-3)CC1 , HCT-15 (colon cancer cell line), reported inhibition at 10 µM = 61.3

Summary line: O=C(NCCCN1CCN(Cc2ccccc2)CC1)c1c(Cl)[nH]c2c1CCCc1ccccc1-2 , HCT-15 (colon cancer cell line), reported inhibition at 10 µM = 99

* * *

System: MDA-MB-468 (breast cancer cell line)
Experiment: NCI-60 single-dose assay
Format: cell-based, human
Conditions: human
READOUT: growth inhibition (GI%) and cytotoxicity (negative values)
The figure you give is taken to be in %; do not add the unit.

| CHEM_SMILES | RECORDED_RESULT |
| --- | --- |
| CCOc1ccccc1N1CCN(CCNC(=O)c2c(Cl)[nH]c3c2CCCc2ccccc2-3)CC1 | −3.78 |
| O=C(NCCCN1CCN(c2ccccc2)CC1)c1cc2c([nH]1)-c1ccccc1CCC2 | −13.75 |

Summary line: O=C(NCCCN1CCN(Cc2ccccc2)CC1)c1c(Cl)[nH]c2c1CCCc1ccccc1-2 , MDA-MB-468 (breast cancer cell line), reported growth inhibition (GI%) and cytotoxicity (negative values) = −29.55

Summary line: CCN1CCC[C@H]1CNC(=O)c1[nH]c2c(c1Cl)CCCc1ccccc1-2 , MDA-MB-468 (breast cancer cell line), reported growth inhibition (GI%) and cytotoxicity (negative values) = −3.75

* * *

System: SARS-CoV-2 VR PV10734 (strain Milano)
Test: microbe, parasite or virus in culture
Format: cell-based
Settings: SARS-CoV-2, VERO TMPRSS cells, 24 h; full dose-response; read-out: EC50
READOUT: pEC50
The meaning of pEC50 here: minus log10 of the concentration in molar units.

// recorded pEC50 for O=c1nc(NO)ccn1[C@@H]1O[C@H](CO)[C@@H](O)[C@H]1O [EIDD-1931, reference compound] : 7.30
